- TESTED TARGET: JAK2 (Homo sapiens, UniProt O60674)
- Sequence (O60674 whole entry): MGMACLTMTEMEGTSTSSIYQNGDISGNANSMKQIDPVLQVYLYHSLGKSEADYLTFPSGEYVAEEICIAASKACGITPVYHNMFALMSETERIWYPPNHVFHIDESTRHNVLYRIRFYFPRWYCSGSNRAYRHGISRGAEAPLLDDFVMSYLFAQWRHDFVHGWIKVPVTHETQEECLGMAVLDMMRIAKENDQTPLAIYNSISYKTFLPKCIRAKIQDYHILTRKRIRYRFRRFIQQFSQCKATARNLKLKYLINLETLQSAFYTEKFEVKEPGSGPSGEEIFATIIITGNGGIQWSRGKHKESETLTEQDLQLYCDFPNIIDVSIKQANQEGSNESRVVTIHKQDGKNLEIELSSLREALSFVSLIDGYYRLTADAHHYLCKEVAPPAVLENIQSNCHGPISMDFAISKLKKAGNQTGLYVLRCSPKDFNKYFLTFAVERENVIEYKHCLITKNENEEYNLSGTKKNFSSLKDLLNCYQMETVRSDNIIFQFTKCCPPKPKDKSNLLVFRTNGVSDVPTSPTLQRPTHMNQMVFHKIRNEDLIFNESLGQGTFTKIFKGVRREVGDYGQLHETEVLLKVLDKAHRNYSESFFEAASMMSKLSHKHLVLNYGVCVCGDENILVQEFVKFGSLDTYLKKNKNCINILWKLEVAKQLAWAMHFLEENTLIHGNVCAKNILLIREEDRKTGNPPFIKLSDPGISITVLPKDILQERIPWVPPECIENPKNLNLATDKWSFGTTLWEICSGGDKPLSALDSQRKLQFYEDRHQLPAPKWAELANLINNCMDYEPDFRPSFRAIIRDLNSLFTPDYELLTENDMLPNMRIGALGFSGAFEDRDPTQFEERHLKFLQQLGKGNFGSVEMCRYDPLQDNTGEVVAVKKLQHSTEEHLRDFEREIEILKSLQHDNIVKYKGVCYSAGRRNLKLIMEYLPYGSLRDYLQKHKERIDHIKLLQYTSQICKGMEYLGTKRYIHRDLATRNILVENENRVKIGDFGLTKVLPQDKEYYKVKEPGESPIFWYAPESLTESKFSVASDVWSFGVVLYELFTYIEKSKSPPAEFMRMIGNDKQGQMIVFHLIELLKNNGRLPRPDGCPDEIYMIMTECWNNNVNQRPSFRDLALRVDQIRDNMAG
MEASUREMENT NAME: IC50

In the examples that follow, each entry is paired with its recorded IC50.
COMPOUND	MEASUREMENT
Cc1cnc2nc1Nc1cccc(c1)CCNC(=O)c1ccc(cc1)-c1cnc(F)c(c1)N2 [Compound 22]	< 10 nM
COC(=O)c1cc2ccc1C(=O)NCCCCCNc1nc(ncc1C)Nc1cc-2cnc1F [Compound 19]	101 to 1000 nM
CC(=O)Nc1cc2ccc1C(=O)NCCCCCNc1nc(ncc1C)Nc1cc-2cnc1F [Compound 43]	101 to 1000 nM
Cc1cnc2nc1Nc1cccc(c1)CCCC(=O)N1CCN(CC1)c1cnc(F)c(c1)N2 [Compound 35]	11 to 100 nM

Query: Complete the entry with IC50 for Cc1cnc2nc1Nc1cc(ccc1O)CCNC(=O)c1ccc(cc1)-c1cnc(F)c(c1)N2 [Compound 48]
Response: 11 to 100 nM

Query: Complete the entry with IC50 for Cc1cnc2nc1NCCCCCNC(=O)c1ccc(c(F)c1F)-c1cnc(F)c(c1)N2 [Compound 34]
Response: 101 to 1000 nM
